target: Dual specificity tyrosine-phosphorylation-regulated kinase 1A (Rattus norvegicus); test: Inhibition of rat recombinant GST-fused DYRK1A expressed in Escherichia coli using KKISGRLSPIMTEQ as substrate by scintillation counting in presence of [gamma-33P]ATP
pIC50: −log10 of the molar value.
readout.label: pIC50

- input.smiles: "COc1cc2ncnc(Nc3ccc(NC(C)=O)cc3)c2cc1OC"
  pIC50: "< 5.00"
- input.smiles: "COc1ccc(Nc2ncnc3cc(OC)c(OC)cc23)cc1"
  pIC50: "< 5.00"
- input.smiles: "COc1cc2ncnc(Nc3ccc(C(C)=O)cc3)c2cc1OC"
  pIC50: "< 5.00"
- input.smiles: "COc1cc2ncnc(Nc3ccc(C)c(C)c3)c2cc1OC"
  pIC50: "< 5.00"
- input.smiles: "COc1cc2ncnc(Nc3ccc(F)c(Cl)c3)c2cc1OC"
  pIC50: "< 5.00"
- input.smiles: "COc1cc2ncnc(Nc3cccc(C(F)(F)F)c3)c2cc1OC"
  pIC50: "< 5.00"

Recorded pIC50 for COc1cc2ncnc(Nc3ccc(OC(F)(F)F)cc3)c2cc1OC , please?
< 5.00

Return reported pIC50; argument: COc1cc2ncnc(Nc3ccccc3)c2cc1OC
< 5.00

Please look up its pIC50: COc1ccc(Nc2ncnc3cc(OC)c(OC)cc23)cc1OC
≤ 5.00

I have this compound here, COc1cc2ncnc(Nc3ccc(C(F)(F)F)cc3)c2cc1OC , and I need its recorded pIC50.
< 5.00

* * *

biological target: Dual specificity protein kinase CLK1 (Homo sapiens); assay: Inhibition of human recombinant GST-fused CLK1 expressed in Escherichia coli using GRSRSRSRSRSR as substrate
Reported IC50 is given for each of the following compounds.

- compound: "COc1cc2ncnc(Nc3ccc(C)c(C)c3)c2cc1OC"
  IC50: "> 10 µM"

Data request, read-out IC50, for O=C1Nc2cc(Br)ccc2/C1=C1/Nc2ccccc2/C1=N\O [6BIO]
2.1 µM

Recorded IC50 of COc1cc2ncnc(Nc3ccc(C(C)=O)cc3)c2cc1OC , please.
≥ 10 µM

* * *

Here, each record is paired with measured pIC50 data.
target: Dual specificity protein kinase CLK1 (Homo sapiens, UniProt P49759); test: Inhibition of human recombinant GST-fused CLK1 expressed in Escherichia coli using GRSRSRSRSRSR as substrate
Sequence (P49759 whole entry, the tested form may be a part): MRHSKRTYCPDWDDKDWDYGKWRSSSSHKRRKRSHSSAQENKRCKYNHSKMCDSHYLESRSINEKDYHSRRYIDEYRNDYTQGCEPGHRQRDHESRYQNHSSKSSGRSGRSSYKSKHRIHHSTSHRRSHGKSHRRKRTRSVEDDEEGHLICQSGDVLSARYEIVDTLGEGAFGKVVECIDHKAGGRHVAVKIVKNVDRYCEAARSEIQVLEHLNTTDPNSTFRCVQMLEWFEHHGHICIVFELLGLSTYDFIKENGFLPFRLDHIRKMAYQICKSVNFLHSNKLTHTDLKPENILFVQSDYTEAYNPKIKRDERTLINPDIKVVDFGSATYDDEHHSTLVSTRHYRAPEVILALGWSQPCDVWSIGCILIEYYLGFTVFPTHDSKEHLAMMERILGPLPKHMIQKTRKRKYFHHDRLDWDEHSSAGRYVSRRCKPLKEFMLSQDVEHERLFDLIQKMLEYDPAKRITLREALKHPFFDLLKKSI
pIC50: −log10 of the molar value.

Consider the following illustrative entries.
- input.smiles: "COc1ccc(Nc2ncnc3cc(OC)c(OC)cc23)cc1OC"
  measured.result: 5.82
- input.smiles: "COc1cc2ncnc(Nc3ccc(C(F)(F)F)cc3)c2cc1OC"
  measured.result: "< 5.00"
- input.smiles: "COc1cc2ncnc(Nc3ccc(F)c(Cl)c3)c2cc1OC"
  measured.result: 5.12
- input.smiles: "COc1cc2ncnc(Nc3ccccc3)c2cc1OC"
  measured.result: "≤ 5.00"
- input.smiles: "COc1ccc(Nc2ncnc3cc(OC)c(OC)cc23)cc1"
  measured.result: "< 5.00"
- input.smiles: "COc1cc2ncnc(Nc3cccc(C(F)(F)F)c3)c2cc1OC"
  measured.result: "< 5.00"

# get_value(readout='pIC50', item= COc1cc2ncnc(Nc3ccc(NC(C)=O)cc3)c2cc1OC )
< 5.00

Any idea what pIC50 was measured for COc1cc2ncnc(Nc3ccc(OC(F)(F)F)cc3)c2cc1OC ?
< 5.00
